# assayed_target: T1, rat calcitonin receptor (rat, UniProt P32214 25-516)
# T1 construct: whole, on cells; Membranes of transiently transfected BHK tk'ts 13 cells (Assay VIII); also called rCTR
# T1 sequence (looked up): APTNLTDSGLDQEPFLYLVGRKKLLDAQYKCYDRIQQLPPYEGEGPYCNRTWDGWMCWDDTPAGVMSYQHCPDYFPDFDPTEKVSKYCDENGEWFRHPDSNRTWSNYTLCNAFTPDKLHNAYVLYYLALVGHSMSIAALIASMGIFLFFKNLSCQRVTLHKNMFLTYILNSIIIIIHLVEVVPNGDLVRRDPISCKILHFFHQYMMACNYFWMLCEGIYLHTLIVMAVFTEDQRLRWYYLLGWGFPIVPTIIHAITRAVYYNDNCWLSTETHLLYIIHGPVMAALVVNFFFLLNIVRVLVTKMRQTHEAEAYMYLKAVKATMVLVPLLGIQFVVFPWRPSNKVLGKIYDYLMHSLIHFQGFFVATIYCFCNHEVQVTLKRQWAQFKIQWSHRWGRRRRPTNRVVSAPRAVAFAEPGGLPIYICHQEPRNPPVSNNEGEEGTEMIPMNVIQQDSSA
# experimental_details: SPA competition with 125I-calcitonin, membranes of BHK cells with rat calcitonin receptor (Assay VIII)
Numbered stars: 1 amine (or outer) side, 2 acyl side, 3 side chain; on linkers, the order of the positions; unused ones are H or OH. Bridge positions count the residues as written; N and C are the ends. Side chains are listed from the residue outwards. Ends that are not written are not given here. * marks the point of attachment. C20 diacid = O=C(O)CCCCCCCCCCCCCCCCCCC(=O)*; γGlu = O=C(O)[C@H](CCC(=O)[*:2])N[*:1]
attribute_measured: IC50 (nM)

>>> measurement("K([γGlu-C20 diacid])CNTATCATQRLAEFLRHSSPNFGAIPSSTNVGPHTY-NH2 (disulfide 2-7)")
5.43

(I) {C20 diacid-γGlu}-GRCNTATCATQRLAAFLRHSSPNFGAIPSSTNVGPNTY-NH2 (disulfide 3-8)
(II) K([γGlu-γGlu-C20 diacid])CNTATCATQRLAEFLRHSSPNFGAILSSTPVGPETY-NH2 (disulfide 2-7 (inferred))
Would you mind telling me which has the lower recorded IC50 between I and II ? Write down the label attached to your selection.
II
